- EXPERIMENTAL_TARGET: HDAC6 (Homo sapiens (Human), UniProt Q9UBN7)
- Sequence (Q9UBN7 whole entry): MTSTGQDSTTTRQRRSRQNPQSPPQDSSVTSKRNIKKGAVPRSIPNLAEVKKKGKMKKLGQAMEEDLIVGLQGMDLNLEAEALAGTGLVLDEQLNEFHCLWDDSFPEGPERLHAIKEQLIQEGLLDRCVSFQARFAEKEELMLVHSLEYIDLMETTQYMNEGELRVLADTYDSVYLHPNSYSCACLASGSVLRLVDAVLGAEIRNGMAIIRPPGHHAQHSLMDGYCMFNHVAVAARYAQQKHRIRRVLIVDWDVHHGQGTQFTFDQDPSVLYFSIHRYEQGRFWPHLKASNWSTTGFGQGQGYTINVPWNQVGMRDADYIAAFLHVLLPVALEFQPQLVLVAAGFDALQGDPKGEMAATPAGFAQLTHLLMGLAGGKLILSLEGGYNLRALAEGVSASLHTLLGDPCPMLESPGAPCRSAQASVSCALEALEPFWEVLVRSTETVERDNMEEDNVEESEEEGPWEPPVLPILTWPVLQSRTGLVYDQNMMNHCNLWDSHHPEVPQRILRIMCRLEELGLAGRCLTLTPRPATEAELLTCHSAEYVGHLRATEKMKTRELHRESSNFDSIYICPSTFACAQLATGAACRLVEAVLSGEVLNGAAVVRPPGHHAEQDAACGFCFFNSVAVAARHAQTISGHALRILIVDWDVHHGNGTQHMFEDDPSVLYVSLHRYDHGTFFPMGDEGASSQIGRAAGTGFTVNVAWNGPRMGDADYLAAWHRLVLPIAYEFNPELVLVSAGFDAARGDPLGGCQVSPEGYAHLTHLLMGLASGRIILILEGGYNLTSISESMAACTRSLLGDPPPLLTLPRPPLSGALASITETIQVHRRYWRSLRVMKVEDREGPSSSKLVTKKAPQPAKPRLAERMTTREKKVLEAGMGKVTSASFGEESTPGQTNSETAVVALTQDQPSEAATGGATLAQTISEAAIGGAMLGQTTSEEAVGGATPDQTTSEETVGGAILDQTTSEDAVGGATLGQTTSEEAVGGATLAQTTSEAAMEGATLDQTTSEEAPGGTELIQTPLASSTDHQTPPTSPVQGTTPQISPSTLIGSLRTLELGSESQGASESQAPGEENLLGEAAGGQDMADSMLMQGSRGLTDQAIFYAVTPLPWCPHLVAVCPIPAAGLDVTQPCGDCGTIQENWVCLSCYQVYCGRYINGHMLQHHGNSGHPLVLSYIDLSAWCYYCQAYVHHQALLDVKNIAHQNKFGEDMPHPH
- EXPERIMENTAL_DETAILS: HDAC6 in vitro enzymatic assay (fluorescence)
- Type: biochemical
- CONDITION_SUMMARY: Table 3; read-out: IC50 (nM) for inhibition of HDAC6
READOUT_LABEL: IC50 (nM)

1: O=C(NO)c1ccc2nc(N3CCN(c4ccc(F)cc4)CC3)[nH]c2c1 [Example 126]
2: O=C(NO)c1ccc2sc(-c3cncc(Br)c3)nc2c1 [Example 80]
3: O=C(NO)c1ccc2oc(-c3ccc4c(c3)OCO4)nc2c1 [Example 8]
4: O=C(NO)c1ccc2oc(-c3ccc4c(c3)OCCO4)nc2c1 [Example 219]
Q) Using the list above, order everything by rising IC50. Answer by writing out the labels in the requested order.
A) 3, 2, 4, 1

a: O=C(NO)c1ccc2oc(Nc3ccccc3)nc2c1 [Example 42]
b: CC(C)c1ccc(-c2nc3cc(C(=O)NO)ccc3o2)cc1 [Example 1]
Q) Of the two listed items, which has the higher IC50? First: a Second: b Reply with the label of the item you choose.
A) b

a: CC(C)c1ccc(-c2nc3cc(C(=O)NO)ccc3s2)cc1 [Example 75]
b: O=C(NO)c1ccc2oc(-c3ccc(-c4ccccc4F)cc3)nc2c1 [Example 21]
Q) Which shows the larger IC50 value: a or b ? State your choice using its label.
A) b

---

- EXPERIMENTAL_TARGET: HDAC6 (Homo sapiens (Human))
- EXPERIMENTAL_DETAILS: HDAC6 in vitro enzymatic assay (fluorescence)
- Format: biochemical
- CONDITION_SUMMARY: Table 4 selectivity profiling; read-out: IC50 (nM) HDAC6
READOUT_LABEL: IC50 (nM)

Examples with answers:
> print(dat)
                            smiles.record  measured.result
1      Cc1noc(C)c1-c1cc2cc(C(=O)NO)ccc2s1               36
2  CC(C)c1ccc(-c2nc3cc(C(=O)NO)ccc3s2)cc1                3

1: O=C(NO)c1ccc2oc(-c3ccc(-c4ccccc4F)cc3)nc2c1
2: O=C(NO)c1ccc2oc(COc3cccc(F)c3)cc2c1
Q) Compare the recorded IC50 of 1 and 2 ; state which is larger. Lab log: write the label of the selected item as the result.
A) 1
(1: 28 nM, 2: 7 nM)

---

- EXPERIMENTAL_TARGET: HDAC2 (Homo sapiens (Human), UniProt Q92769)
- Sequence (Q92769 whole entry): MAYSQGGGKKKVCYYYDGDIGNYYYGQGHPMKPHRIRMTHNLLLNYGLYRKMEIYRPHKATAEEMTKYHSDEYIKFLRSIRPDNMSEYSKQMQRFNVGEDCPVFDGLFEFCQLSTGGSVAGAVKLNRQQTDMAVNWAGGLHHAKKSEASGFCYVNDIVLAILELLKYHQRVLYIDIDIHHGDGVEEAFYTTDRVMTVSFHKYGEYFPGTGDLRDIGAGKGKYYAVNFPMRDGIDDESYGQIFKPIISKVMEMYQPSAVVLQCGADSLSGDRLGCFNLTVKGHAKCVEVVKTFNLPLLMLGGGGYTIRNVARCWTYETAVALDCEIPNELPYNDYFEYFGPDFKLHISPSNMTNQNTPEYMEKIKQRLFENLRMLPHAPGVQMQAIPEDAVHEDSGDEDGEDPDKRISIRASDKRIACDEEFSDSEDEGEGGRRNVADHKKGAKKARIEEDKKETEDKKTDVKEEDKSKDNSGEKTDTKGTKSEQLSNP
- EXPERIMENTAL_DETAILS: HDAC2 in vitro enzymatic assay (fluorescence)
- Format: biochemical
- CONDITION_SUMMARY: Table 4 selectivity profiling
READOUT_LABEL: IC50 (nM)

Known IC50 results, listed for orientation:
> print(dat)
                                   molecule  value.units  measured.result
1  COc1ncccc1-c1ccc(-c2nc3cc(C(=O)NO)ccc3o2)cc1           nM            28000
2  CC(C)(C)c1ccc(-c2nc3cc(C(=O)NO)ccc3s2)cc1           nM             9400
3       O=C(NO)c1ccc2oc(COc3cccc(F)c3)cc2c1           nM             3500

I: CC(C)c1ccc(-c2cc3cc(C(=O)NO)ccc3s2)cc1
II: CC(C)c1ccc(-c2cc3ccc(C(=O)NO)cc3s2)cc1
Q) Which record shows the lower IC50: the first, I , or the second, II ? Respond using the label that marks the chosen record.
A) II

A: Cc1noc(C)c1-c1cc2cc(C(=O)NO)ccc2s1
B: O=C(NO)c1ccc2sc(-c3ccc(F)cc3)nc2c1
C: CC(C)(C)c1ccc(-c2nc3cc(C(=O)NO)ccc3o2)cc1
Q) Ascending by IC50, please. Your reply should list the labels following the order given in the request.
A) B, C, A
(B: 6600 nM, C: 19000 nM, A: 74000 nM)

Data provenance is patent US10654814B2.
